CC50 at 24 h listing for selected molecules.
# PROCEDURE DETAILS: Cytotoxicity, resazurin assay
# Assay type: cell-based
# ASSAY SETUP: human, HEK 293T cells, 24 h treatment
PARAMETER MEASURED: CC50 at 24 h (µM)

1. CC(C)Cc1ccc([C@@H](C)C(=O)N[C@@H](Cc2ccccc2)C(=O)N(C)c2ccccc2)cc1: 27
2. CN(C(=O)[C@H](Cc1ccccc1)NC(=O)NCc1nc2ccccc2[nH]1)c1ccccc1: 10

* * *

# PROCEDURE DETAILS: Cytotoxic effect on OMK cells
# Format: cell-based
# ASSAY SETUP: owl monkey, OMK (owl monkey kidney) cells
PARAMETER MEASURED: CC50

1. CN(C(=O)[C@H](Cc1ccccc1)NC(=O)NCc1nc2ccccc2[nH]1)c1ccccc1: < 3 µM

Measured values drawn from paper PMC7221806 for this set.
